test system: A549/ATCC NSCLC; assay: NCI-60 one-dose screen, 48 h (100 = growth as untreated, 0 = no growth, -100 = all killed); details: 10 µM unless noted
Compounds without any hit were thinned out: in the full panel of roughly 83,000, 20% have a hit.
Quantity name: growth (%)
Write the answer as a number in %, unit excluded.

The cases that follow already have their growth on record.
O=C(Nc1ncc(Cc2ccc(Cl)cc2)s1)c1ccc2c(c1)OCCO2	18
CN(C)c1ccc(/C=C/C2=[N+](C)c3ccccc3C2(C)C)cc1	15.3
O=C(O)/C=C\C(=O)Nc1ccc2c(c1)Cc1cc(F)ccc1-2	106
COc1cc2ncnc(Nc3ccc(S(=O)(=O)Nc4cc(C)on4)cc3)c2cc1OCCCN1CCOCC1	95.3

Requested read-out growth, target or system A549/ATCC NSCLC, entry CC(=O)Cc1nsc(NC(=O)c2cc(-c3cc(Cl)ccc3Cl)oc2C)n1
98.8

Request: C(=N\Nc1nnc2n1N=C(c1ccccc1)CS2)/c1ccc(OCc2ccccc2)cc1
91.1

Request: O=C(O)c1nn(-c2ccc(Cl)cc2)nc1N1CCCC1
101
